# credit: ChEMBL document CHEMBL5236580

subject_of_test: Histone-lysine N-methyltransferase EZH2 (Homo sapiens, UniProt Q15910)
Sequence (Q15910 whole entry): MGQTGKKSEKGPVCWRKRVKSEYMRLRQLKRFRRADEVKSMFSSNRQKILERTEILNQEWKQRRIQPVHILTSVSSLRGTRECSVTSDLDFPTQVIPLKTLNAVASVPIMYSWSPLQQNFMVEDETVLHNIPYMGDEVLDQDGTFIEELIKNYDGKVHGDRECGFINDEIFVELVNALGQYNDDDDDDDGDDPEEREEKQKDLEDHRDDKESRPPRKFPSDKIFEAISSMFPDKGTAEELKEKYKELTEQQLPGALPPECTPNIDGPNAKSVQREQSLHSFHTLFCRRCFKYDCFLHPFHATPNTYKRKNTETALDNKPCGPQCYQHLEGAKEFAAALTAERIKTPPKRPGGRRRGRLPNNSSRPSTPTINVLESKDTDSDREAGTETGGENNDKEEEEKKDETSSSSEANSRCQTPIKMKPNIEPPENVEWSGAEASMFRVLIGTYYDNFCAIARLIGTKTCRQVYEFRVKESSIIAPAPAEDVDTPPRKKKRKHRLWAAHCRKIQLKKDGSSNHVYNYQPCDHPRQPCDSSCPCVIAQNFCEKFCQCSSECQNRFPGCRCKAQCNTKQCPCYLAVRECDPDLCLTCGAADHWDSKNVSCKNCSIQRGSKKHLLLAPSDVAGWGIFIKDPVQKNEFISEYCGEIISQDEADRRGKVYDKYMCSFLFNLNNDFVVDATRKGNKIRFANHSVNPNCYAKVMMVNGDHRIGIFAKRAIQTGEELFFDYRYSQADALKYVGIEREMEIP
test_details: Induction of degradation of EZH2 in human EOL1 cells
Format: cell-based
measurement_label: pEC50
Give bare numbers, as −log10 of the molar value.

// Input: Cc1cc(C)c(CNC(=O)c2cc(-c3ccc(N4CCN(CCNC(=O)CCOCCNc5cccc6c5C(=O)N(C5CCC(=O)NC5=O)C6=O)CC4)nc3)cc3c2cnn3C(C)C)c(=O)[nH]1 (stereo unspecified) . Output its pEC50 only.
6.70

---

subject_of_test: Histone-lysine N-methyltransferase EZH2 (Homo sapiens)
test_details: Induction of degradation of EZH2 in human MV4-11 cells
Assay type: cell-based
measurement_label: pEC50
Numbers only, as −log10 of the molar value.

// Input: Cc1cc(C)c(CNC(=O)c2cc(-c3ccc(N4CCN(CCNC(=O)CCOCCNc5cccc6c5C(=O)N(C5CCC(=O)NC5=O)C6=O)CC4)nc3)cc3c2cnn3C(C)C)c(=O)[nH]1 (stereo unspecified) . Output its pEC50 only.
5.82
